Measured inhibition at 1000 µM, listed per entry for reference.
- System Name: RhlR (Pseudomonas aeruginosa)
- Construct: expressed in transfected cells; host or cells: E. coli JLD271 (ΔsdiA) with pJN105R2 (arabinose-induced) and pSC11-rhlI*
- Sequence (P54292 whole entry): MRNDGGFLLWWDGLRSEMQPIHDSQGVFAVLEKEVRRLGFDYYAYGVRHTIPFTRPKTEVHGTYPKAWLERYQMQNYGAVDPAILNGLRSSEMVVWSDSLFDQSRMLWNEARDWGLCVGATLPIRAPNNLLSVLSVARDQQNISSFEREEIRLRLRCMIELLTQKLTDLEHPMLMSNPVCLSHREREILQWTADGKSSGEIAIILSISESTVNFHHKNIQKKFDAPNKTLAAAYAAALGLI
- Assay Details: E. coli RhlR reporter antagonism assay vs 10 μM BHL (JLD271/pJN105R2/pSC11-rhlI*)
- Type: cell-based, P. aeruginosa
- Stated Conditions: read-out: % inhibition (1 mM), compound at 1 mM in the presence of 10 μM BHL; negative = agonism stronger than 10 μM BHL alone

Below are worked cases with known answers.
Compound	System Name	Experimental Endpoint	Reported Measurement
C#CCCCC(=O)N[C@H]1CCOC1=O	RhlR (Pseudomonas aeruginosa)	inhibition at 1000 µM	-76%
C=CCCCC(=O)N[C@H]1CCOC1=O	RhlR (Pseudomonas aeruginosa)	inhibition at 1000 µM	-69%

# inhibition at 1000 µM lookup, item CCCC(=O)NC1CCOC1 (stereo not drawn)
20%

Quick one: inhibition at 1000 µM of CCC(=O)N[C@H]1CCOC1=O ?
-66%

Any idea what its inhibition at 1000 µM is? The compound is C/C=C\CC(=O)N[C@H]1CCOC1=O
-74%

I am curious: what inhibition at 1000 µM value has been reported for CCCC(=O)NC1CCCC1 ?
45%

Tell me the measured inhibition at 1000 µM of CC(C)CC(=O)N[C@H]1CCCC1=O , please.
-122%

Endpoint output: inhibition at 1000 µM of CCC(C)(C)C(=O)N[C@H]1CCOC1=O . Value?
7%

Could you tell me which inhibition at 1000 µM is on file for O=C(COc1ccc(I)cc1)NCC1CCCO1 (stereo not drawn) ?
> 50%
